The reported measurements were obtained from the supplement of paper PMC12645437.

// reported log2 fold change of degron read counts per item
Molecular target: T1, CRBN, Q96SW2;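 further: pooled lentiviral library of zinc finger degron-EGFP fusions in mCherry-positive Jurkat cells, FACS-sorted after compound exposure, with degron abundance counted by next-generation sequencing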
T1 chain: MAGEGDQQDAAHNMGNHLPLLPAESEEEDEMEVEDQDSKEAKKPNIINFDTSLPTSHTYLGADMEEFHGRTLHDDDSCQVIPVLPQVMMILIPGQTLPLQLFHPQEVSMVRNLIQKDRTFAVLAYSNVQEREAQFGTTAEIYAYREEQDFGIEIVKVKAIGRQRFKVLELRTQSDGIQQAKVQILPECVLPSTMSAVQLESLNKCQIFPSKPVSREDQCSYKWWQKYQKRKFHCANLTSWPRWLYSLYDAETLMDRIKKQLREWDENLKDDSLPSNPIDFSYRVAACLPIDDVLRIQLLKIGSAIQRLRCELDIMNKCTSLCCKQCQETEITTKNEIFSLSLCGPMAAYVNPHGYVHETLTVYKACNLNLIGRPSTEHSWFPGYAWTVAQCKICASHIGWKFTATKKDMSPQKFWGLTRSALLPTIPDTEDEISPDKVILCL
Assay: log2 fold change of degron read counts, EGFP-low vs EGFP+ sorted cells (limma voom), compound-induced degradation; higher = more compound-induced degradation of the degron-EGFP fusion; degrons are variants of IKZF1/3 zinc finger 2; compound dose not given here
Settings: Jurkat; 18 h; compound: compound 22 (5-morpholino-thalidomide)
Over roughly 8,300 sequences, “log2 fold change of degron read counts, EGFP-low vs EGFP+ sorted cells (limma voom), compound-induced degradation” has its median near -1.1; the highest 2% begin near 3.2. Only a selection was taken, and the highest values are over-represented in it overall.
// response body must contain only the number

Consider the reported log2 fold change of degron read counts for these sequences:
[
  {
    "query sequence": "FECNQCGRAFTQKGNLLRHIKL [46F_47E_49N_50Q_52G_53R_54A_55F_67L_, Q9UKT9]",
    "quantity": "log2 fold change of degron read counts",
    "assay result": -4.2
  },
  {
    "query sequence": "FICEICGRSFTQKGNLLRHIKL [46F_47I_49E_50I_52G_53R_54S_55F_67L_, Q9UKT9]",
    "quantity": "log2 fold change of degron read counts",
    "assay result": -2.13
  },
  {
    "query sequence": "FECPVCGACFTQKGNLLRHIKL [46F_47E_49P_50V_52G_53A_54C_55F_67L_, Q9UKT9]",
    "quantity": "log2 fold change of degron read counts",
    "assay result": -0.609
  }
]

Continue with the next sequence.
*Q* Looking for the measured log2 fold change of degron read counts of FHCPICGRNFTQKGNLLRHIKL [46F_47H_49P_50I_52G_53R_54N_55F_67L_, Q9UKT9] , can you help?
*A* -0.983
